experimental-target: h cathepsin G (Homo sapiens)
Sequence (P08311 21-255): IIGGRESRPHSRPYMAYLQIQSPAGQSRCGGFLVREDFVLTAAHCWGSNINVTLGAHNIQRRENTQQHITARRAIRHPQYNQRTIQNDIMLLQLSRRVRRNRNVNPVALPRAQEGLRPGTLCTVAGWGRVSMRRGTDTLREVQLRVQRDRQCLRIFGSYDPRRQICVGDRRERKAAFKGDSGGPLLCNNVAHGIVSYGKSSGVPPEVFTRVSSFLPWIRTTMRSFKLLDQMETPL
pIC50: −log10 of the molar value.
experimental-endpoint: pIC50

CN(C)C(=O)COC(=O)Cc1ccc(OC(=O)c2ccc(NC(=N)N)cc2)cc1: 4.35

---

experimental-target: UniProtKB P07477
pIC50: −log10 of the molar value.
experimental-endpoint: pIC50

CN(C)C(=O)COC(=O)Cc1ccc(OC(=O)c2ccc(NC(=N)N)cc2)cc1: 8.55

---

experimental-target: h factor VIIa (Homo sapiens, UniProt P08709)
Sequence (P08709 213-466 limits assumed): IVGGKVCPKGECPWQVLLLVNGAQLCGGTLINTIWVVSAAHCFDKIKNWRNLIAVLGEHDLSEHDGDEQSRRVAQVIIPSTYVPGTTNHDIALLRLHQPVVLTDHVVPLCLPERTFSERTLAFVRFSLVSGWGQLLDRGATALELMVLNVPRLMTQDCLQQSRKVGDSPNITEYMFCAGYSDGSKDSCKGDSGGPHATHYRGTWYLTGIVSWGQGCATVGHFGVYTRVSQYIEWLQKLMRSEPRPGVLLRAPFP
Sequence (P08709 61-212 partner limits assumed): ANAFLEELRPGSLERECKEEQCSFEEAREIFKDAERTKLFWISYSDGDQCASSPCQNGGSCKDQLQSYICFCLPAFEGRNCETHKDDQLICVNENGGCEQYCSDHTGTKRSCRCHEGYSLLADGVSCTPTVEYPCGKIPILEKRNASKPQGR
pIC50: −log10 of the molar value.
experimental-endpoint: pIC50

CN(C)C(=O)COC(=O)Cc1ccc(OC(=O)c2ccc(NC(=N)N)cc2)cc1 [Camostat]: 6.27

---

experimental-target: h cathepsin L (Homo sapiens)
Sequence (P07711 114-333): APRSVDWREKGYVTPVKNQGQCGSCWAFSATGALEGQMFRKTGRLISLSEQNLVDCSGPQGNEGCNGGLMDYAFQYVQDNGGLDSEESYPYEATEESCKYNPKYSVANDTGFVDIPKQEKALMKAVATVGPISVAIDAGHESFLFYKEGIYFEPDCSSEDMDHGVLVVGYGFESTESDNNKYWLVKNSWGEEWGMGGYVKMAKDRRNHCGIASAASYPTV
experimental-endpoint: IC50

CN(C)C(=O)COC(=O)Cc1ccc(OC(=O)c2ccc(NC(=N)N)cc2)cc1 [Camostat]: > 50 µM

---

experimental-target: h neutrophil elastase (Homo sapiens, UniProt P08246)
Sequence (P08246 30-267): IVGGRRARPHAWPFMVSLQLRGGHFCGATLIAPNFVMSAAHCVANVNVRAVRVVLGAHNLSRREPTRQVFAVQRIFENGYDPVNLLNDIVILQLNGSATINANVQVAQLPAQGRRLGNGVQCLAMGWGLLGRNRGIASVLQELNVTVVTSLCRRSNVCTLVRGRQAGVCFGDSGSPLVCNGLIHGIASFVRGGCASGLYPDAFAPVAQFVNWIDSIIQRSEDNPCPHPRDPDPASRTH
assay-procedure: protease selectivity panel, enzyme activity assay
stated-conditions: 1 h pre-incubation RT
pIC50: −log10 of the molar value.
experimental-endpoint: pIC50

CN(C)C(=O)COC(=O)Cc1ccc(OC(=O)c2ccc(NC(=N)N)cc2)cc1: 4.04

---

experimental-target: h chymotrypsin
assay-procedure: protease selectivity panel, enzyme activity assay
stated-conditions: 1 h pre-incubation RT
pIC50: −log10 of the molar value.
experimental-endpoint: pIC50

CN(C)C(=O)COC(=O)Cc1ccc(OC(=O)c2ccc(NC(=N)N)cc2)cc1 [Camostat]: 4.91

---

experimental-target: h cathepsin B (Homo sapiens, UniProt P07858)
experimental-endpoint: IC50

CN(C)C(=O)COC(=O)Cc1ccc(OC(=O)c2ccc(NC(=N)N)cc2)cc1 [Camostat]: > 50 µM

---

Sequence of the target: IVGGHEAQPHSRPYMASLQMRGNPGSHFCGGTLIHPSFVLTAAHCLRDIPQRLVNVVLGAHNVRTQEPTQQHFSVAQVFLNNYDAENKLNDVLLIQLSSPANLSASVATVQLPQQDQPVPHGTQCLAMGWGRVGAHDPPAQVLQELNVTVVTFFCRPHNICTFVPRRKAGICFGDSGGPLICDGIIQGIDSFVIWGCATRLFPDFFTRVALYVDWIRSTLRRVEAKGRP
experimental-endpoint: IC50

CN(C)C(=O)COC(=O)Cc1ccc(OC(=O)c2ccc(NC(=N)N)cc2)cc1: > 50 µM
